- test_summary: Kinetic aqueous solubility of the compound in PBS at pH 7.4 incubated for 2 hr under shaking condition by shake flask based UV reader plate analysis
- Type: physicochemical
- details: read-out: Kinetic_solubility
value_kind: solubility kinetic at 2 h (µM)

>>> numeric_value("C[C@H](Nc1ccc(Cl)c(S(=O)(=O)N2CCOCC2)c1)C(=O)Nc1cncc(Cl)c1")
77
>>> numeric_value("C[C@H](Nc1ccc(Cl)c(S(=O)(=O)N2CCOCC2)c1)C(=O)Nc1ccc(F)c(Cl)c1")
14
>>> numeric_value("CC(C)(Nc1ccc(Cl)c(S(=O)(=O)N2CCOCC2)c1)C(=O)Nc1cncc(Cl)c1")
60
>>> numeric_value("O=C(CNc1ccc(Cl)c(S(=O)(=O)N2CCOCC2)c1)Nc1ccc(F)c(Cl)c1")
19
>>> numeric_value("CC(C)(Nc1ccc(Cl)c(S(=O)(=O)N2CCOCC2)c1)C(=O)Nc1ccc(F)c(Cl)c1")
16
